Known peptide exchange yield of a selection of binders
Target entity: T1, HLA-A*02:01 (human)
T1 construct: MHC class I monomer of the UV-ligand exchange assay; also called peptide-receptive MHC molecules; MHC class I
Assay name: UV peptide-exchange ELISA
Excerpt: Candidate peptides for T cell based therapies according to the present invention were further tested for their MHC binding capacity (affinity). The individual peptide-MHC complexes were produced by UV-ligand exchange, where a UV-sensitive peptide is cleaved upon UV-irradiation, and exchanged with the peptide of interest as analyzed. Only peptide candidates that can effectively bind and stabilize the peptide-receptive MHC molecules prevent dissociation of the MHC complexes. […]

Answered cases to consult:
Binder	peptide exchange yield
VLLFIEHSV	50 to 75%
GLSEISLRL	≥ 75%
VIRNIVEAA	20 to 50%
ALGEDEITL	50 to 75%
FVFEAPYTL	50 to 75%

Name the reported peptide exchange yield value associated with the binder FLFEPVVKAFL
50 to 75%

Can you handle ILAGEMLSV next?
50 to 75%

Can you handle FVPDTPVGV next?
50 to 75%

Can you handle SMKDDLENV next?
20 to 50%

Can you handle YLGPVSPSL next?
50 to 75%

Cited source for all entries: patent US20170165337A1
